Numbers sourced from the supplement of paper PMC10126150.

Test system: ATP;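 note: ATP exposure 15 min at 22 °C before imaging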
Assay: switch fluorescence ratio, 500 uM ATP over buffer (Cy3 cluster intensity, sum of 5 cycles each) (fold (ratio)); higher = stronger signal-on switching upon ATP binding; sequences stand for … in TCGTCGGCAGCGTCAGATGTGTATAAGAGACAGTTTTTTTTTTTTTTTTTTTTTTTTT…TC
Conditions: aptamer strand: ATP DNA aptamer (quencher-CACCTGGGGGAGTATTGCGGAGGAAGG + anchor), 100 nM annealed; ATP concentration: 500 uM
Quick reference: switch fluorescence ratio of the listed items.

Worked cases, switch fluorescence ratio given:
AAGCCGGGCT    1.02
GATTGGACTA    1
GGTGTTGAGA    1.01

Enquiry: // query switch fluorescence ratio value for entry CTTGTATACG
Return: 0.989

Enquiry: // query switch fluorescence ratio value for entry CGTTGGAATA
Return: 1.01

Enquiry: // query switch fluorescence ratio value for entry CGTGGCTAAG
Return: 0.971

Enquiry: // query switch fluorescence ratio value for entry ACAAAAGACT
Return: 1.19

Enquiry: // query switch fluorescence ratio value for entry AGCGCCTCAG
Return: 1

Enquiry: // query switch fluorescence ratio value for entry ATATGGTGGT
Return: 1.03

Enquiry: // query switch fluorescence ratio value for entry GGAAGTGGCA
Return: 1.01

Enquiry: // query switch fluorescence ratio value for entry CAGCGGTGGG
Return: 1.02

Enquiry: // query switch fluorescence ratio value for entry GATGAAAGAT
Return: 1
